- system_under_test: Receptor-type tyrosine-protein kinase FLT3 (Homo sapiens, UniProt P36888, D835Y)
- experiment: Inhibition of human recombinant His-tagged FLT3/D835Y mutant expressed in baculovirus expression system incubated for 30 mins in presence of ATP by HTRF analysis
measure: IC50 (nM)
Answers are plain numbers, in nM.

Hey, can you go through the list below and give me IC50 for every item?
1. CN1CCC(NC(=O)CO/N=C2/C(=C3/C(=O)Nc4ccccc43)Nc3ccccc32)CC1
2. CN1CCC(NC(=O)CO/N=C2/C(=C3/C(=O)Nc4ccc(F)cc43)Nc3ccccc32)CC1
3. O=C1Nc2ccc(OC(F)(F)F)cc2/C1=C1/Nc2ccccc2/C1=N\OCC(=O)N1CCNCC1
4. O=C1Nc2ccc(F)cc2/C1=C1/Nc2ccccc2/C1=N\OCC(=O)N1CCNCC1
5. CN1CC(NC(=O)CO/N=C2/C(=C3/C(=O)Nc4ccccc43)Nc3ccccc32)C1
6. O=C1Nc2ccc(F)cc2/C1=C1/Nc2ccccc2/C1=N\OCCC(=O)N1CCNCC1

Output:
1: 53.5; 2: 14.3; 3: 1.62; 4: 0.18; 5: 0.75; 6: 3.41

Hey, can you go through the list below and give me IC50 for every item?
1. O=C(CO/N=C1/C(=C2/C(=O)Nc3ccc(F)cc32)Nc2ccccc21)NC1CCNCC1
2. NC1CCN(C(=O)CO/N=C2/C(=C3/C(=O)Nc4ccccc43)Nc3ccccc32)CC1
3. CN1CCN(C(=O)CO/N=C2/C(=C3/C(=O)Nc4ccc(F)cc43)Nc3ccccc32)CC1
4. O=C1Nc2ccccc2/C1=C1/Nc2ccccc2/C1=N\OCS(=O)(=O)N1CCNCC1
5. CN1CCN(C(=O)CO/N=C2/C(=C3/C(=O)Nc4ccc(Cl)cc43)Nc3ccccc32)CC1
6. O=C1Nc2ccc(Br)cc2/C1=C1/Nc2ccccc2/C1=N\OCC(=O)N1CCNCC1
7. O=C(CO/N=C1/C(=C2/C(=O)Nc3ccccc32)Nc2ccccc21)NC1CNC1

Output:
[2.16, 3.07, 0.35, 3.78, 0.39, 0.22, 3.25]

Hey, can you go through the list below and give me IC50 for every item?
1. O=C(CO/N=C1/C(=C2/C(=O)Nc3ccccc32)Nc2ccccc21)NC1CCNCC1
2. O=C1Nc2ccc(I)cc2/C1=C1/Nc2ccccc2/C1=N\OCC(=O)N1CCNCC1
3. NC1CCN(C(=O)CO/N=C2/C(=C3/C(=O)Nc4ccc(F)cc43)Nc3ccccc32)CC1
4. NC1CCN(C(=O)CO/N=C2/C(=C3/C(=O)Nc4ccc(Cl)cc43)Nc3ccccc32)CC1
5. CN1CCN(C(=O)CO/N=C2/C(=C3/C(=O)Nc4ccccc43)Nc3ccccc32)CC1

Output:
1: 1.12; 2: 0.45; 3: 3.45; 4: 1.34; 5: 0.52

Task: Param item = `O=C(CO/N=C1/C(=C2/C(=O)Nc3ccccc32)Nc2ccccc21)N[C@H]1CCNC1` ; retrieve measured IC50.
Output: 0.2

###

- experiment: AUClast in ICR mouse at 10 mg/kg, iv measured upto 24 hrs
- Type: ADME, organism-based
- Design: time < 24 hrs, dose 10 mg/kg, route iv
- assay_setup: in vivo
measure: AUC(0-t) at 24 h (ng·h/mL)
Numbers only, in ng·h/mL.

Task: Param item = `Cl.O=C(CO/N=C1/C(=C2/C(=O)Nc3ccccc32)Nc2ccccc21)N[C@@H]1CCNC1` ; retrieve measured AUC(0-t) at 24 h.
Output: 367

###

So I've got a bunch of compounds here, and I need their log10 of GI50 values.
- System: MV4-11
- experiment: Antiproliferative activity against human MV4-11 cells assessed as inhibition of cell growth incubated for 72 hrs by EZ-Cytox colorimetric assay
- Type: functional
Record value = log10 of GI50 given in nM.

[[record]]
mol_smiles = "O=C(CO/N=C1/C(=C2/C(=O)Nc3ccc(F)cc32)Nc2ccccc21)NC1CCNCC1"
assay_result = 0.51

[[record]]
mol_smiles = "O=C1Nc2ccc(F)cc2/C1=C1/Nc2ccccc2/C1=N\\OCS(=O)(=O)N1CCNCC1"
assay_result = 0.98

[[record]]
mol_smiles = "NC1CCN(C(=O)CO/N=C2/C(=C3/C(=O)Nc4ccc(F)cc43)Nc3ccccc32)CC1"
assay_result = 0.99

[[record]]
mol_smiles = "CN1CCC(NC(=O)CO/N=C2/C(=C3/C(=O)Nc4ccccc43)Nc3ccccc32)CC1"
assay_result = 1.64

[[record]]
mol_smiles = "CN1CCN(C(=O)CO/N=C2/C(=C3/C(=O)Nc4ccccc43)Nc3ccccc32)CC1"
assay_result = 1.09


Hey, can you go through the list below and give me log10 of GI50 for every item?
1. CN1CC[C@H](NC(=O)CO/N=C2/C(=C3/C(=O)Nc4ccccc43)Nc3ccccc32)C1
2. CN1CCN(C(=O)CO/N=C2/C(=C3/C(=O)Nc4ccc(F)cc43)Nc3ccccc32)CC1
3. O=C(CO/N=C1/C(=C2/C(=O)Nc3ccc(Cl)cc32)Nc2ccccc21)NC1CCNCC1

Output:
0.79
0.81
0.03

Hey, can you go through the list below and give me log10 of GI50 for every item?
1. O=C1Nc2ccc(F)cc2/C1=C1/Nc2ccccc2/C1=N\OCCN1CCNCC1
2. O=C(CO/N=C1/C(=C2/C(=O)Nc3ccccc32)Nc2ccccc21)NC1CNC1
3. Cl.O=C(CO/N=C1/C(=C2/C(=O)Nc3ccccc32)Nc2ccccc21)N[C@@H]1CCNC1

Output:
0.57
0.69
-0.28

Hey, can you go through the list below and give me log10 of GI50 for every item?
1. O=C1Nc2ccc(F)cc2/C1=C1/Nc2ccccc2/C1=N\OCC(=O)N1CCNCC1
2. NC1CCN(C(=O)CO/N=C2/C(=C3/C(=O)Nc4ccccc43)Nc3ccccc32)CC1
3. CN1CCC(NC(=O)CO/N=C2/C(=C3/C(=O)Nc4ccc(Cl)cc43)Nc3ccccc32)CC1
4. CN1CCC(NC(=O)CO/N=C2/C(=C3/C(=O)Nc4ccc(F)cc43)Nc3ccccc32)CC1
5. CCc1nc(C(N)=O)c(Nc2ccc(N3CCC(N4CCN(C)CC4)CC3)c(OC)c2)cc1NC1CCOCC1

Output:
1. 0.09
2. 1.24
3. 1.21
4. 1.59
5. 0.91

###

- system_under_test: Receptor-type tyrosine-protein kinase FLT3 (Homo sapiens)
- experiment: Inhibition of human recombinant His-tagged FLT3 kinase domain (564 to 958 residues) expressed in baculovirus expression system incubated for 30 mins in presence of ATP by HTRF analysis
Please use True for IC50 under 2 nM and False for everything else, ties included.

Study these solved cases before continuing.
[[record]]
mol_smiles = "O=C1Nc2ccc(F)cc2/C1=C1/Nc2ccccc2/C1=N\\OCCC(=O)N1CCNCC1"
group = "True"

[[record]]
mol_smiles = "O=C1Nc2ccc(F)cc2/C1=C1/Nc2ccccc2/C1=N\\OCS(=O)(=O)N1CCNCC1"
group = "False"

[[record]]
mol_smiles = "O=C(CO/N=C1/C(=C2/C(=O)Nc3ccccc32)Nc2ccccc21)NC1CNC1"
group = "False"

[[record]]
mol_smiles = "COc1ccc2c(c1)/C(=C1/Nc3ccccc3/C1=N\\OCC(=O)N1CCNCC1)C(=O)N2"
group = "True"


Task: Does `CN1CC(NC(=O)CO/N=C2/C(=C3/C(=O)Nc4ccccc43)Nc3ccccc32)C1` have IC50 strictly under 2 nM?
Output: True

###

- System: MV4-11
- experiment: Antiproliferative activity against human MV4-11 cells assessed as inhibition of cell growth incubated for 72 hrs by EZ-Cytox colorimetric assay
- Assay type: functional
Please use label 1 for GI50 under 8 nM and label 0 for everything else, ties included.

Study these solved cases before continuing.
[[record]]
mol_smiles = "O=C1Nc2ccc(OC(F)(F)F)cc2/C1=C1/Nc2ccccc2/C1=N\\OCC(=O)N1CCNCC1"
system_under_test = "MV4-11"
group = "label 0"

[[record]]
mol_smiles = "O=C1Nc2ccc(Cl)cc2/C1=C1/Nc2ccccc2/C1=N\\OCC(=O)N1CCNCC1"
system_under_test = "MV4-11"
group = "label 1"

[[record]]
mol_smiles = "NC1CCN(C(=O)CO/N=C2/C(=C3/C(=O)Nc4ccc(Cl)cc43)Nc3ccccc32)CC1"
system_under_test = "MV4-11"
group = "label 0"

[[record]]
mol_smiles = "CN1CC(NC(=O)CO/N=C2/C(=C3/C(=O)Nc4ccccc43)Nc3ccccc32)C1"
system_under_test = "MV4-11"
group = "label 1"

[[record]]
mol_smiles = "O=C1Nc2ccc(Br)cc2/C1=C1/Nc2ccccc2/C1=N\\OCC(=O)N1CCNCC1"
system_under_test = "MV4-11"
group = "label 1"


Task: Does `O=C(CO/N=C1/C(=C2/C(=O)Nc3ccccc32)Nc2ccccc21)N[C@H]1CCNC1` have GI50 strictly under 8 nM?
Output: label 1

Task: Consider next the compound `O=C1Nc2ccc(I)cc2/C1=C1/Nc2ccccc2/C1=N\OCC(=O)N1CCNCC1` in the same way.
Output: label 1

Task: Consider next the compound `O=C1Nc2ccc(F)cc2/C1=C1/Nc2ccccc2/C1=N\OCCC(=O)N1CCNCC1` in the same way.
Output: label 0

Task: Consider next the compound `CN1CC[C@@H](NC(=O)CO/N=C2/C(=C3/C(=O)Nc4ccccc43)Nc3ccccc32)C1` in the same way.
Output: label 0

Task: Consider next the compound `COc1ccc2c(c1)/C(=C1/Nc3ccccc3/C1=N\OCC(=O)N1CCNCC1)C(=O)N2` in the same way.
Output: label 0

Task: Consider next the compound `O=C1Nc2ccc(F)cc2/C1=C1/Nc2ccccc2/C1=N\OCCS(=O)(=O)N1CCNCC1` in the same way.
Output: label 0

Task: Consider next the compound `O=C(CO/N=C1/C(=C2/C(=O)Nc3ccccc32)Nc2ccccc21)NC1CCNCC1` in the same way.
Output: label 1

Task: Consider next the compound `CN1CCN(C(=O)CO/N=C2/C(=C3/C(=O)Nc4ccc(Cl)cc43)Nc3ccccc32)CC1` in the same way.
Output: label 0
